- PROTOCOL: Inhibition of NTPase activity of SCV NTPase/helicase after 5 mins by FRET assay
- Parameters: species or system Severe acute respiratory syndrome-related coronavirus
pIC50: −log10 of the molar value.
pIC50 listing for selected molecules.
METRIC_NAME: pIC50

[[record]]
structure = "O=c1cc(OCc2ccccc2)oc2ccc(OCc3cccc(Cl)c3)c(O)c12"
metric_name = "pIC50"
data_value = "< 4.30"

[[record]]
structure = "O=c1c(OCc2cccc([N+](=O)[O-])c2)c(-c2ccccc2)oc2cc(O)cc(O)c12"
metric_name = "pIC50"
data_value = "< 4.30"

[[record]]
structure = "O=c1cc(OCc2cc(Cl)cc(Cl)c2)oc2ccc(OCc3cccc(Cl)c3)c(O)c12"
metric_name = "pIC50"
data_value = "< 4.30"

